tested on: Mus musculus; test: Anticonvulsant activity in Swiss Albino mouse at 300 mg/kg, ip after 0.5 hr by scPIC test; type: functional, organism-based; set-up: dose 300 mg/kg
Calls of active or inactive are those of the source. The calls are words filed in the database; no cut-off is given here.
reported metric: Activity

> print(dat)
                                   compound    result
1         O=C1NC(=O)C(c2ccccc2)(c2ccccc2)N1  inactive
2                 O=C(O)CCCNC(=O)NN=C1CCCC1  inactive
3  O=C(O)CCCNC(=O)N/N=C/c1ccc([N+](=O)[O-])cc1  inactive
4          C/C(=N\NC(=O)NCCCC(=O)O)c1ccccc1    Active
5  O=C(O)CCCNC(=O)N/N=C(\c1ccccc1)c1ccc(Br)cc1  inactive

Next compound, Activity to be filled in.
So, `C/C(=N\NC(=O)NCCCC(=O)O)c1ccc([N+](=O)[O-])cc1` ? Its Activity was inactive

From: ChEMBL document CHEMBL1139875
